Tested on: Tov112D
Assay: Primary qHTS to identify gynecologic anti-cancer compounds using libraries of approved drugs and bioactive compounds (AID 1345084); also: nearly all actives have a fitted effect of over 55% in size
Details: Gynecologic cancer cell panel viability, ATPlite luminescence, 48 h; series mostly up to 57.5 µM
Inconclusive results are not listed. Activity calls are given as the source filed them. Calls follow the shape of the dose curve; as a rule, active = well fitted cell-killing curve with a large enough effect; inconclusive = small, poorly fitted or top-dose-only effect, or effect the other way; inactive = flat fitted curve, though single readings scatter.
Please state which outcome applies, choosing from true (active), false (inactive)

The examples below pair each entry with its known result.
{"columns": ["COMPOUND", "CAT"],
 "data": [
  ["CC12CCC3c4ccc(OC5OC(C(=O)O)C(O)C(O)C5O)cc4CCC3C1CCC2O (centres undefined)", "false"],
  ["CC(C)CNCc1ccc(-c2ccccc2S(=O)(=O)N2CCCC2)cc1", "false"],
  ["CC12CCC(C(OC3OC(COC4OCC(O)(CO)C4O)C(O)C(O)C3O)C1)C(C)(C)O2 (centres undefined)", "false"],
  ["CC1(C)C=CN2C(=O)C3=CCCN3C(=O)[C@@H]2C[C@@]12Nc1ccccc1C2=O", "false"],
  ["COc1cc2c(NC3CCN(CC4CCCCC4)CC3)nc(N3CCCN(C(C)C)CC3)nc2cc1OCCCN1CCCCC1", "true"],
  ["C=C1C(=O)O[C@@H]2[C@H]1CCC(C)=C1CCC(=O)O[C@]12C", "false"],
  ["COc1cc(/C=C/C(=O)OC[C@H]2O[C@@](CO)(O[C@H]3O[C@H](CO)[C@@H](O)[C@H](O)[C@H]3O)[C@@H](OC(=O)/C=C/c3ccc(O)c(OC)c3)[C@@H]2O)ccc1O", "false"],
  ["OC/C=C/C=C/[C@H]1Cc2cc(O)cc(O)c2O1", "false"],
  ["CC1CCC2(C(=O)O)CCC3(C)C(=CCC4C5(C)CCC(O)C(C)(CO)C5CCC43C)C2C1(C)O (centres undefined)", "false"],
  ["CC(C)NCC(C(=O)N1CCN(c2ncnc3c2C(C)CC3O)CC1)c1ccc(Cl)cc1 (centres undefined)", "false"]
]}

How was C=CC1(C)CC(OC(=O)/C(C)=C\COC(C)=O)C(C(=C)C(=O)O)C(O)C1C(=C)CO (centres undefined) classified in this test?
false

Follow-up entry: Cn1nc(C(C)(C)C)cc1C(=O)NC(Cc1cccc(Cl)c1)C(=O)NCC#N (centres undefined)
false

What about C=C1CCC2C(C(C)(C)O)CCC2(C)CC(O)C(=C)CCC1O (centres undefined) ?
false

Ok, now N#Cc1ccc(C(=O)N2CCC3(CC2)N=C(N)c2c(F)ccc(F)c2N3)cn1
false

Follow-up item: C=C1CCC2C(C)(C)CCC[C@]2(C)[C@H]1C/C=C(\CO)C(=O)C(=O)O (some centres undefined)
false

Item: O=C1C=CC(O)(/C=C/C(=O)OC[C@H]2O[C@@H](Oc3ccc(O)cc3)[C@H](O)[C@@H](O)[C@@H]2O)C=C1
false

Same question for OCCc1ccc(O[C@@H]2O[C@H](CO)[C@@H](O)[C@H](O)[C@H]2O)cc1 please.
false

Proceed to COc1cc2ncnc(Nc3cccc(Cl)c3F)c2cc1OC(=O)N1CCN(C)C[C@H]1C
true

Queued: CC/C=C\C/C=C\C/C=C\CCCCCCCC(=O)OCC(O)COC1OC(CO)C(O)C(O)C1O (centres undefined)
false

Also need CC(C)=CC/C=C(\C)[C@H]1CC[C@]2(C)[C@@H]1[C@H](O)C[C@@H]1[C@@]3(C)CC[C@H](O)C(C)(C)[C@@H]3[C@@H](O[C@@H]3O[C@H](CO)[C@@H](O)[C@H](O)[C@H]3O)C[C@]12C , thanks.
false

----------
Tested on: NIH3T3
Test: Cytotoxic Profiling of Annotated Libraries Using Quantitative High-Throughput Screening (AID 1296008); also: % is scaled to controls: 0 for no effect and ±100 for the full control effect; nearly all actives have a fitted effect of over 60% in size
Conditions: Five cell lines viability, CellTiter-Glo ATP luminescence, 48-72 h; hits give low values
Records with an inconclusive call do not appear. Activity calls are given as the source filed them. The call rests on the fitted dose curve; in most records, active means well fitted inhibition curve with a large enough effect; inconclusive means small, poorly fitted or top-dose-only effect; inactive means flat fitted curve, though single readings scatter. Where a SMILES comes first, the peptide text is derived from it. [ ]: non-standard residue; d: D form. dPhe(4-Cl) = N[C@H](Cc1ccc(Cl)cc1)C(=O)O; d2Nal = N[C@H](Cc1ccc2ccccc2c1)C(=O)O; dCit = NC(=O)NCCC[C@@H](N)C(=O)O; d3Pal = N[C@H](Cc1cccnc1)C(=O)O
The entries below come with measured max response values attached.

# count of solved cases: 5
{"columns": ["MOLECULE", "TARGET OF ASSAY", "RESULT TYPE", "RESULT"],
 "data": [
  ["CC(=O)O[C@H]1CC[C@@]2(C)C(CC[C@@H](C)[C@]23Cc2c(O)cc4c(c2O3)CN([C@@H](CCC(=O)O)C(=O)O)C4=O)C1(C)C (some centres undefined)", "NIH3T3", "max response", "2.49% (inactive)"],
  ["CC(C)CCC1(O)C(=O)C(C)(C)C(O[C@@H]2O[C@H](CO)[C@@H](O)[C@H](O)[C@H]2O)C(C)(C)C1O (some centres undefined)", "NIH3T3", "max response", "-0.747% (inactive)"],
  ["CC(=O)N[C@H](Cc1ccc2ccccc2c1)C(=O)N[C@H](Cc1ccc(Cl)cc1)C(=O)N[C@H](Cc1cccnc1)C(=O)N[C@@H](CO)C(=O)N[C@@H](Cc1ccc(O)cc1)C(=O)N[C@H](CCCNC(N)=O)C(=O)N[C@@H](CC(C)C)C(=O)N[C@@H](CCCN=C(N)N)C(=O)N1CCC[C@H]1C(=O)N[C@H](C)C(N)=O (Ac-[d2Nal][dPhe(4-Cl)][d3Pal]SY[dCit]LRP[dA]-NH2)", "NIH3T3", "max response", "4.07% (inactive)"],
  ["O=C(c1cc2c(cc1F)OC(c1ccc(F)cc1)(c1ccc(Cl)cc1Cl)O2)N1CCOCC1 (centres undefined)", "NIH3T3", "max response", "-3.07% (inactive)"],
  ["CC(C)C(C#N)O[C@@H]1O[C@H](CO[C@@H]2O[C@@H](C)[C@H](O)[C@@H](O)[C@H]2O)[C@@H](O)[C@H](O)[C@H]1O (some centres undefined)", "NIH3T3", "max response", "-15% (inactive)"]
]}

Given the entry COc1ccc(-n2[nH]c(=O)c3[nH]c4cc(Cl)ccc4c(=O)c3c2=O)c(C)c1 , report its measured max response.
4.85% (inactive)

How about C/C=C1\[C@H](O[C@@H]2O[C@H](CO)[C@@H](O)[C@H](O)[C@H]2O)OC=C(C(=O)OC)[C@H]1CC(=O)O ?
-1.8% (inactive)

Likewise for C=C(CO)C12OC1C1(C)C(=CC2=O)C(O)C(O)CC1C (centres undefined) ?
-6.8% (inactive)

Continue with COc1cc(C)c(C(=O)O[C@H]2[C@@H](OC(C)=O)[C@H](n3ccc(=O)[nH]c3=O)O[C@@H]2CO)c(OC)c1
-14.4% (inactive)

What do you have for COc1cc(Br)c(S(=O)(=O)Nc2ccc(C(F)(F)F)c(O[C@@H]3CCN(C)C3)c2)cc1OC ?
-2.88% (inactive)

----------
System: Zika virus NS2B-NS3 protease (unlinked complex)
Test: Primary screen GU Rhodamine qHTS for Zika virus inhibitors: Unlinked NS2B-NS3 protease assay (AID 1347159); also: % is scaled to controls: 0 for no effect and ±100 for the full control effect; nearly all actives have a fitted effect of over 60% in size
Settings: Recombinant ZIKV NS2B-NS3 protease, Rhodamine110 substrate fluorescence; series mostly up to 107 µM
Inconclusive results are not listed. The source made the active and inactive calls. Calls follow the shape of the dose curve; as a rule, active = well fitted inhibition curve with a large enough effect; inconclusive = small, poorly fitted or top-dose-only effect; inactive = no such curve, though single readings can be large or run the other way.
RESULT TYPE: activity change, negative = inhibition

Reference set (3 entries):
{"columns": ["MOLECULE", "activity change, negative = inhibition"],
 "data": [
  ["CC1(C)CC[C@]2(C(=O)O[C@@H]3O[C@H](CO[C@@H]4O[C@H](CO)[C@@H](O)[C@H](O)[C@H]4O[C@@H]4O[C@H](CO)[C@H](O)[C@H](O)[C@H]4O)[C@@H](O)[C@H](O[C@@H]4O[C@H](CO)[C@@H](O)[C@H](O)[C@H]4O)[C@H]3O)CC[C@]3(C)C(=CCC4[C@@]5(C)CC[C@H](O[C@@H]6OC[C@@H](O)[C@H](O)[C@H]6O)[C@@](C)(C(=O)O)C5CC[C@]43C)[C@@H]2C1 (some centres undefined)", "20.2% [at 19.1 µM] (inactive)"],
  ["C[C@H](N)C(=O)N[C@@H](Cc1ccc(O)cc1)C(=O)N1CCC[C@H]1C(=O)NCC(=O)N[C@@H](CCCCN)C(=O)N[C@@H](Cc1ccccc1)C(N)=O", "124% [at 19.1 µM] (inactive)"],
  ["CC(C)=CCC/C(C)=C/CC/C(C)=C/COC1OC(COC2OCC(OC3OCC(O)C(O)C3O)C(O)C2O)C(O)C(OC2OC(C)C(OC3OC(C)C(OC4OCC(OC5OC(C)C(O)C(O)C5O)C(O)C4O)C(O)C3O)C(O)C2O)C1O (centres undefined)", "15.4% [at 19.1 µM] (inactive)"]
]}

// below: activity change, negative = inhibition requested for another molecule
Item under review: CC1(C)CC[C@]2(C(=O)O[C@@H]3O[C@H](CO[C@@H]4O[C@H](CO)[C@@H](O)[C@H](O)[C@H]4O[C@@H]4O[C@H](CO)[C@@H](O)[C@H](O)[C@H]4O)[C@@H](O)[C@H](O[C@@H]4O[C@H](CO)[C@@H](O)[C@H](O)[C@H]4O)[C@H]3O)CC[C@]3(C)C(=CCC4[C@@]5(C)CC[C@@H](O)[C@@](C)(C(=O)O[C@@H]6O[C@H](CO)[C@@H](O)[C@H](O)[C@H]6O)C5CC[C@]43C)[C@@H]2C1 (some centres undefined) . Reported activity change, negative = inhibition?
14.6% [at 19.1 µM] (inactive)

Taken from PubChem BioAssay (NCATS).
